# systemName: Feline_OSMR_hlgG1_Fc (feline)
# Sequence (chain, as listed by the source limits assumed, form in doubt): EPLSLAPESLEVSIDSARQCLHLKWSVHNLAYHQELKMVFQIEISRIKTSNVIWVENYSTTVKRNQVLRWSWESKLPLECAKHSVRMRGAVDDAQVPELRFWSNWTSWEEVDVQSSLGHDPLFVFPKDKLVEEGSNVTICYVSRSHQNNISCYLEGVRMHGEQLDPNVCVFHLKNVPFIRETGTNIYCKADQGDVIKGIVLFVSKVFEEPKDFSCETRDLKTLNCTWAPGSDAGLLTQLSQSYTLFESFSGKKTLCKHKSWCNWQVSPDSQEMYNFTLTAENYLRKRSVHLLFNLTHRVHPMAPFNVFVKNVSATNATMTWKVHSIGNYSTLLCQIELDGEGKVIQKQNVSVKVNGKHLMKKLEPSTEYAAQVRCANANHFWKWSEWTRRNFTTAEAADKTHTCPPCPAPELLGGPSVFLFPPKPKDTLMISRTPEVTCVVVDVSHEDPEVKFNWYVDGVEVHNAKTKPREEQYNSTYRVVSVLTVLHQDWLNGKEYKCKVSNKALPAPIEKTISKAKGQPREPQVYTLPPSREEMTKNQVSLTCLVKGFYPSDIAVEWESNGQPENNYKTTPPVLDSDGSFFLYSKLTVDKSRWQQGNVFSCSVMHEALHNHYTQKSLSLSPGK
# assaySummary: SPR Biacore
experimentalReadout: log10 of kon (log10 of the value in M⁻¹ s⁻¹)
Please be aware that the numbers have been log10-transformed from kon in M⁻¹ s⁻¹.

The reported log10 of kon of the binder Mu_19F07_VH (SEQ ID NO: 47)_F104A (antibody, V domains shown) VH: EVKLVESEGGLVQPGSSMKLSCTASGFTFSDYYMAWVRQVPEKGLEWVANINYDGSSTYYLDSLKSRFIISRDNAKNILYLQMSSLKSEDTATYYCARGLTWDADVWGTGTTVTVSS VL: DIVMTQSHKFMSPSVGDRVSITCKASQDVDTAVAWYQQKPGQSPKLLIYLASTRHTGVPDRFTGSGSGTDFTLTISNVQSEDLADYFCQQYSRFPLTFGAGTKLELKR was 5.16

Please fill in: log10 of kon reported for Mu_10F07_VH (SEQ ID NO: 39)_I101A (antibody, V domains shown) VH: DVKLVESGEGLVKPGGSLKLSCAASGFTFSSYAMSWVRQTPEKRLEWVTYISSGGDYFYYADTVKGRFTISRDNARNTLYLQMSSLKSEDTAMYYCTRDPATGTFAYWGQGTLVTVSA VL: DIQMTQTTSSLSASLGDRVTISCRASQDITNYLNWYQQKPDGTVKLLIYYTSTLHSGVPSRFSGSGSGTDFSLTISNLEQEDIATYFCQQGHMLPWTFGGGTKLEIKR = 5.01

Entry Mu_10F07_VH (SEQ ID NO: 39)_D99A (antibody, V domains shown) VH: DVKLVESGEGLVKPGGSLKLSCAASGFTFSSYAMSWVRQTPEKRLEWVTYISSGGDYFYYADTVKGRFTISRDNARNTLYLQMSSLKSEDTAMYYCTRAPITGTFAYWGQGTLVTVSA VL: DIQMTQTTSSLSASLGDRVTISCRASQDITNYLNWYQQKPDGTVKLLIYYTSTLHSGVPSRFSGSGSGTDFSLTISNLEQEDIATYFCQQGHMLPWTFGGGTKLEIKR ; log10 of kon = 5.34

get_value(item= Mu_09E09_VH (SEQ ID NO: 35)_S35A (antibody, V domains shown) VH: DVKLVESGEGLVKPGGSLKLSCAASGFTFSSYAMAWVRQTPEKRLEWVAYISSGGDYIYYADTVKGRFTISRDNARNTLYLQMSSLKSEDTAMYYCTRDPITGTFAYWGQGTLVTVSA VL: DLQMTQTTSSLSASLGDRVTISCRASQDINNYLNWYQQKPDGTVKLLIYYTSTLHSGVPSRFSGSGSGTDYSLTISNLEQEDIATYFCQQGNTLPWTFGGGTKLEIKR , readout=log10 of kon) returns 5.88

Entry mouse: canine 09E09 chimera (antibody, V domains shown) VH: DVKLVESGEGLVKPGGSLKLSCAASGFTFSSYAMSWVRQTPEKRLEWVAYISSGGDYIYYADTVKGRFTISRDNARNTLYLQMSSLKSEDTAMYYCTRDPITGTFAYWGQGTLVTVSA VL: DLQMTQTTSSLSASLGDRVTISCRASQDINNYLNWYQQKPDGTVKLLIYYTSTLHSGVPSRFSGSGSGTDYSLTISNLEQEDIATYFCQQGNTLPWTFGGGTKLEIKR , log10 of kon reported as 5.88

Lab note: Mu_02D09_VH (SEQ ID NO: 31)_D99A (antibody, V domains shown) VH: EVQLVESGGGLVKPGGSLTLSCAASGFTFSDYGMHWLRQAPEKGLEWVAYISSGSRAVFFADTVKGRFTISRDNAKNTLFLQMTSLRSDDTAMYYCARARYDGRGFAYWGQGTLVTVSA VL: DIVLTQSPATLSVTPGDSVSLSCRASQSISNNLHWYQQTSHESPRLLITYASQSISGIPSRFSGSGSGTDFTLSINSVETEDFGMYFCQQSNSWPLTFGAGTKLELKR gave log10 of kon of 5.61

Mu_09E09_VL (SEQ ID NO: 37)_Y32A (antibody, V domains shown) VH: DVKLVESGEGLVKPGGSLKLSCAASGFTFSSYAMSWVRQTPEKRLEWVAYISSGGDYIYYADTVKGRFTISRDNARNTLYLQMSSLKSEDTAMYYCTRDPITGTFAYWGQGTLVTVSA VL: DLQMTQTTSSLSASLGDRVTISCRASQDINNALNWYQQKPDGTVKLLIYYTSTLHSGVPSRFSGSGSGTDYSLTISNLEQEDIATYFCQQGNTLPWTFGGGTKLEIKR yielded log10 of kon of 6.40

Briefly, log10 of kon measured for Mu_10F07_VL (SEQ ID NO: 41)_T97A (antibody, V domains shown) VH: DVKLVESGEGLVKPGGSLKLSCAASGFTFSSYAMSWVRQTPEKRLEWVTYISSGGDYFYYADTVKGRFTISRDNARNTLYLQMSSLKSEDTAMYYCTRDPITGTFAYWGQGTLVTVSA VL: DIQMTQTTSSLSASLGDRVTISCRASQDITNYLNWYQQKPDGTVKLLIYYTSTLHSGVPSRFSGSGSGTDFSLTISNLEQEDIATYFCQQGHMLPWAFGGGTKLEIKR : 5.24

The reported value for Mu_02D09_VH (SEQ ID NO: 31)_D62A (antibody, V domains shown) VH: EVQLVESGGGLVKPGGSLTLSCAASGFTFSDYGMHWLRQAPEKGLEWVAYISSGSRAVFFAATVKGRFTISRDNAKNTLFLQMTSLRSDDTAMYYCARDRYDGRGFAYWGQGTLVTVSA VL: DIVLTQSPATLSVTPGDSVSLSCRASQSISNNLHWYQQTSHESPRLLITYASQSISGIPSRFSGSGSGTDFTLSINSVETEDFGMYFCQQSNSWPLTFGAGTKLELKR in terms of log10 of kon is 5.04

Briefly, log10 of kon measured for mouse: canine 02D09 chimera (antibody, V domains shown) VH: EVQLVESGGGLVKPGGSLTLSCAASGFTFSDYGMHWLRQAPEKGLEWVAYISSGSRAVFFADTVKGRFTISRDNAKNTLFLQMTSLRSDDTAMYYCARDRYDGRGFAYWGQGTLVTVSA VL: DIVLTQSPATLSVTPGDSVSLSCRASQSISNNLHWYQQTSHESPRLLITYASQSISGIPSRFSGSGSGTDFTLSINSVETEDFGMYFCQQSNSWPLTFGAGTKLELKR : 5.12
